# System: MCF7, HCT116, HeLa, and MCF10A cells
# assayExplanation: Survival assay on cell panel (FIG. 9)
# Assay type: cell-based, human
# recordedConditions: Homo sapiens; cell line not stated
Please provide measured EC50 for the entries that follow.

Determine its reported EC50: `O=C(Cn1cnc([N+](=O)[O-])n1)N/N=C/c1ccc(O)cc1O`
~10 µM

Determine its reported EC50: `O=C(O)CSc1cc(Cl)c2nonc2c1[N+](=O)[O-]`
~50 µM

Determine its reported EC50: `Nc1nc(S)nc(O)c1/N=C/c1ccccc1`
~50 µM

Determine its reported EC50: `N#Cc1cn(CCCCCCCc2[nH]c(=O)[nH]c(=O)c2C#N)c(=O)[nH]c1=O`
> 100 µM

Determine its reported EC50: `O=C(O)Cc1cncc(Br)c1`
> 100 µM
